- method.description: Microsomal stability assay, human liver microsomes (intrinsic clearance)
- Format: in vitro ADME
- conditions.used: read-out: CLint. (Hum)
experimental.readout: microsomal CLint
Number first, unit second: that is the form wanted.

FC1(F)CCN(c2nsc(N3CCN(CCc4ccc(Cl)cc4)CC3)n2)CC1    17 µL/min/mg

q: Quick one: microsomal CLint of Clc1ccc(CCN2CCN(c3nc(Cc4ccc(Cl)cc4)ns3)CC2)cc1 [reference compound] ?
a: 43 µL/min/mg

###

- method.description: Lipophilicity (logD) by Carrier mediated distribution system (CAMDIS)
- Format: physicochemical
experimental.readout: logD
Give your answer as a number; write no unit.

q: Quick one: logD of FC1(F)CCN(c2nsc(N3CCN(CCc4ccc(Cl)cc4)CC3)n2)CC1 ?
a: 2.93

// data source = patent US9808456B2
